ASSAYED_SYSTEM: canine TRPM8 (Canis lupus familiaris)
ASSAY_NOTES: In vitro canine TRPM8 functional assay (Ca2+-sensitive fluorescent dye, icilin activation)
Format: cell-based
TEST_CONTEXT: HEK293 cells stably expressing canine TRPM8; icilin-induced Ca2+ response; eight-point concentration-response
pIC50: −log10 of the molar value. Counter-ions that a name gives are not always drawn.
ENDPOINT: pIC50

>>> experimental_result("CC(C)Oc1nc(-c2ccccc2OC(F)(F)F)cc2nc(-c3c(Cl)c(C(C)(C)C)nn3C)[nH]c12 [Compound 93, sodium salt]")
8.92
>>> experimental_result("COCCOc1nc(-c2ccccc2C(F)(F)F)cc2nc(-c3c(C#N)c(C(C)(C)C)nn3C)[nH]c12")
9.16
>>> experimental_result("COc1c(C(C)(C)C)nn(C)c1-c1nc2cc(-c3ccccc3C(F)(F)F)nc(OC)c2[nH]1")
7.70
>>> experimental_result("Cn1nc(C(C)(C)C)c(C#N)c1-c1nc2cc(-c3ccccc3C(F)(F)F)nc(OCCO)c2[nH]1")
8.72

---

ASSAYED_SYSTEM: canine TRPM8 (Canis lupus familiaris, UniProt Q1A7N1)
Sequence (Q1A7N1 1-1104): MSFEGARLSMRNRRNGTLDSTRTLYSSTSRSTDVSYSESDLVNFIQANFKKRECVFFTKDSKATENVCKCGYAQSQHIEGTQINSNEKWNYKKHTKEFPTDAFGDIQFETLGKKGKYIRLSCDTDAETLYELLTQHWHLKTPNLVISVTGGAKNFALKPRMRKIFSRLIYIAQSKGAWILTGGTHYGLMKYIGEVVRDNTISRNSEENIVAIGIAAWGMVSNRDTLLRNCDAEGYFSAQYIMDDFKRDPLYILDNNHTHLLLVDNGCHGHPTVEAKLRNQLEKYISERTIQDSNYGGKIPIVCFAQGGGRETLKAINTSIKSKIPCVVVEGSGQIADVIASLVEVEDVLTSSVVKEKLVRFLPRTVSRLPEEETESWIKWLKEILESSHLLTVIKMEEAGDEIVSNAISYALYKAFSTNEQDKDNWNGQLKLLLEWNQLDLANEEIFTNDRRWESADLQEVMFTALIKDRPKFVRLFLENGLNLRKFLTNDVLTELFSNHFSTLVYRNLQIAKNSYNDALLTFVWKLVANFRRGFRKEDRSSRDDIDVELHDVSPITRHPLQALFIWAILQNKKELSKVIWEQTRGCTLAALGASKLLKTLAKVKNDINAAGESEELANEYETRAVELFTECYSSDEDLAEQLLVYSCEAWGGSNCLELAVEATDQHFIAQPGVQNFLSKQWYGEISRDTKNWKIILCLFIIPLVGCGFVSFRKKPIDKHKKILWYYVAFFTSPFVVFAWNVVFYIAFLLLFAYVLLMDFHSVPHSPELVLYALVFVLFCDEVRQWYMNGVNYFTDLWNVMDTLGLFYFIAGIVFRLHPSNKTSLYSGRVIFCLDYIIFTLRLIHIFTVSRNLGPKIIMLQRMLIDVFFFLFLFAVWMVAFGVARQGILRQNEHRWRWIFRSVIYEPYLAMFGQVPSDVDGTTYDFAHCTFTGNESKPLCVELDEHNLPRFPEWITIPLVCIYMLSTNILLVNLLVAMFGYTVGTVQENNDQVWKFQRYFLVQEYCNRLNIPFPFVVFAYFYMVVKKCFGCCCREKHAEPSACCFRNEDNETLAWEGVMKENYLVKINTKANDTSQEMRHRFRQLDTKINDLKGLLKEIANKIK
ASSAY_NOTES: In vitro canine TRPM8 functional assay (Ca2+-sensitive fluorescent dye, icilin activation)
Assay type: cell-based
TEST_CONTEXT: HEK293 cells stably expressing canine TRPM8; icilin-induced Ca2+ response; eight-point concentration-response
pIC50: −log10 of the molar value. Structures can show the parent of a compound that is named as a salt.
Entries and their pIC50
ENDPOINT: pIC50

>>> experimental_result("COCCOc1cc(-c2ccccc2C(F)(F)F)nc2nc(-c3c(Cl)c(C(C)(C)C)nn3C)[nH]c12 [Compound 76]")
8.24
>>> experimental_result("Cn1nc(C(C)(C)C)cc1-c1nc2nc(-c3ccccc3C(F)(F)F)ccc2[nH]1 [Compound 34]")
7.11
>>> experimental_result("Cn1nc(C(C)(C)C)c(Cl)c1-c1nc2cc(-c3ccccc3C(F)(F)F)nc(Cl)c2[nH]1 [Compound 71, Hydrochloride]")
8.06
>>> experimental_result("Cn1nc(C(C)(C)C)c(Cl)c1-c1nc2nc(-c3ccccc3OC(F)(F)F)cnc2[nH]1 [Compound 94]")
7.65
>>> experimental_result("Cn1nc(C(C)(C)C)c(Cl)c1-c1nc2cc(-c3ccccc3C(F)(F)F)nc(OCC(F)(F)F)c2[nH]1 [Compound 19]")
9.08
>>> experimental_result("COCCOc1cc(-c2ccccc2C(F)(F)F)nc2nc(-c3cc(C(C)(C)C)nn3C)[nH]c12 [Compound 112]")
7.72
>>> experimental_result("CN1CCN(c2nc(-c3ccccc3C(F)(F)F)cc3nc(-c4c(C#N)c(C(C)(C)C)nn4C)[nH]c23)CC1 [Compound 24]")
8.13
>>> experimental_result("Cn1nc(C(C)(C)C)c(Cl)c1-c1nc2cc(-c3ccccc3Cl)nc(OCCN3CCOCC3)c2[nH]1 [Compound 54]")
8.38
>>> experimental_result("Cn1nc(C(C)(C)C)c(Cl)c1-c1nc2cc(-c3ccccc3C(F)(F)F)nc(OCCN3CCCC3)c2[nH]1 [Compound 52]")
7.10
>>> experimental_result("CC(C)(C)c1cc(-c2nc3cc(-c4ccccc4C(F)(F)F)nc(Cl)c3[nH]2)on1 [Compound 73, hydrochloride]")
7.55
>>> experimental_result("COc1nc(-c2ccccc2Cl)cc2nc(-c3cnn(C(C)(C)C)c3C)[nH]c12 [Compound 100, sodium salt]")
7.21
>>> experimental_result("Cn1nc(C(C)(C)C)c(C#N)c1-c1nc2cc(-c3ccccc3C(F)(F)F)nc(N3CCCCC3)c2[nH]1 [Compound 22]")
8.85
>>> experimental_result("Cn1nc(C(C)(C)C)cc1-c1nc2cc(-c3ccccc3F)ncc2[nH]1 [Compound 42, hydrochloride]")
7.23
>>> experimental_result("Cn1nc(C(C)(C)C)c(Cl)c1-c1nc2nc(-c3ccccc3Cl)cnc2[nH]1 [Compound 110]")
7.62
>>> experimental_result("Cn1nc(C(C)(C)C)c(Cl)c1-c1nc2cc(-c3ccccc3Cl)nc(OCCN3CCCC3)c2[nH]1 [Compound 51]")
7.14
